test: In vitro cytotoxicity, NIH 3T3 (neutral red) and LD50; type: cell-based; conditions: NIH 3T3 normal mouse fibroblasts; 50% cell killing, neutral red coloration, normal mouse fibroblasts; read-out: LC50 NIH 3T3 NR
Entries and their CC50 at 72 h values follow.

COc1ccc(-c2csc(NC(=O)CN3CCC(O)CC3)n2)cc1 > 100 µg/mL

Inquiry: Give the value of CC50 at 72 h reported for the following: O=C(CN1CCC(O)CC1)Nc1nccs1
Reply text: > 100 µg/mL

----------
target: soybean lipoxygenase (LOX) (Glycine max); assay: Soybean lipoxygenase inhibition (UV absorbance at 234 nm); format: biochemical
Sequence (P08170 whole entry): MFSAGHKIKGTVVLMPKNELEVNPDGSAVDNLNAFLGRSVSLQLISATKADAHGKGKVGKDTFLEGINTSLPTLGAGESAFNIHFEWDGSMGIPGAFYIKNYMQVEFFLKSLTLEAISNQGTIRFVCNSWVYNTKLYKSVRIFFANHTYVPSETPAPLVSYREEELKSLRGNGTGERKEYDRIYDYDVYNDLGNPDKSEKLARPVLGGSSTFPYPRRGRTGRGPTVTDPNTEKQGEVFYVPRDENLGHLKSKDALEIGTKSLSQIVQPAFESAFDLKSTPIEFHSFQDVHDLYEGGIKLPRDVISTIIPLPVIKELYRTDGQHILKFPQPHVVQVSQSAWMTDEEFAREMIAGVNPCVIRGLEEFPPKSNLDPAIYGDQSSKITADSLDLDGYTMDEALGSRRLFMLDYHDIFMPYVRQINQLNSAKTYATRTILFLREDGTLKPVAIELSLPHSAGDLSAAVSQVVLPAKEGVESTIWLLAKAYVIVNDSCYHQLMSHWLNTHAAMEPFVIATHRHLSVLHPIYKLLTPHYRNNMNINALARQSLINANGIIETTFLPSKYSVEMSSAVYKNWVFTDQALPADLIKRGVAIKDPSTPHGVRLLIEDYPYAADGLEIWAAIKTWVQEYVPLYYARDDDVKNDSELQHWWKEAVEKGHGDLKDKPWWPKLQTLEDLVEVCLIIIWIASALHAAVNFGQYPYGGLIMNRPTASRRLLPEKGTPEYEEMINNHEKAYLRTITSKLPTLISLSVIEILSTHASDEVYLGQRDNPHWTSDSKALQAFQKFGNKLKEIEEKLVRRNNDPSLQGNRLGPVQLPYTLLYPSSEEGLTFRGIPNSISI
quantityName: IC50 (µM)
# unit: µM | format: bare number

COc1ccc(-c2csc(NC(=O)CN3CCC(O[Si](C)(C)C)CC3)n2)cc1 10

Inquiry: Give the value of IC50 reported for the following: C[Si](C)(C)OC1CCN(CC(=O)Nc2nccs2)CC1
Reply text: 350

These data points were gathered from paper PMC1950228.
